# Tested on: human red blood cells (hRBC's)
# test_protocol: Hemolysis assay
# Format: cell-based
# conditions_used: Table 5; first value of H10/H50
Overview of reported Hemolysis H10 across a group of compounds:
readout_name: Hemolysis H10 (µg/mL)

structure_as_smiles	sign	reading
NCCCC[C@H]1CN(C(=O)CCc2ccccc2)CC(=O)N[C@@H](CCCCN)CN(C(=O)CCc2ccccc2)CC(=O)N[C@@H](CCCCN)CN(C(=O)CCc2ccccc2)CC(=O)N[C@@H](CCCCN)CN(C(=O)CCc2ccccc2)CC(=O)N[C@@H](Cc2ccccc2)CN(CC(N)=O)C(=O)CCC(=O)N1	>	500
CC(C)CCC(=O)N1CC(=O)N[C@@H](Cc2ccccc2)CN(C(=O)CCC(C)C)CC(=O)N[C@@H](Cc2ccccc2)CN(C(=O)CCC(C)C)CC(=O)N[C@@H](CCCCN)CN(C(=O)CCc2ccccc2)CC(=O)N[C@@H](CCCCN)CN(C(=O)CCc2ccccc2)CC(=O)N[C@@H](CCCCN)CN(C(=O)CCc2ccccc2)CC(=O)N[C@@H](Cc2ccccc2)CN(CC(N)=O)C(=O)CCC(=O)N[C@@H](Cc2ccccc2)C1	=	45
CC(C)CCC(=O)N1CC(=O)N[C@@H](CCCCN)CN(C(=O)CCc2ccccc2)CC(=O)N[C@@H](CCCCN)CN(C(=O)CCc2ccccc2)CC(=O)N[C@@H](Cc2ccccc2)CN(CC(N)=O)C(=O)CCC(=O)N[C@@H](CCCCN)CN(C(=O)CCc2ccccc2)CC(=O)N[C@@H](CCCCN)CN(C(=O)CCc2ccccc2)CC(=O)N[C@@H](CCCCN)CN(C(=O)CCc2ccccc2)CC(=O)N[C@@H](Cc2ccccc2)C1	=	200

====

# System: C. albicans (ATCC 10231)
# conditions_used: ATCC 10231
readout_name: MIC, Fungi C. albicans (µg/mL)

structure_as_smiles	readout_name	reading
CCCCCCCCCCCCCCCC(=O)N[C@@H](C)CN(CC(=O)N[C@@H](C)CN(CC(=O)N[C@@H](CC(C)C)CN(CC(=O)N[C@@H](CC(C)C)CN(CC(=O)N[C@@H](CC(C)C)CN(CC(N)=O)C(=O)CCCN)C(=O)CCCN)C(=O)CCCN)C(C)=O)C(C)=O	MIC, Fungi C. albicans	5
CC(C)CCC(=O)N1CC(=O)N[C@@H](Cc2ccccc2)CN(C(=O)CCC(C)C)CC(=O)N[C@@H](CCCCN)CN(C(=O)CCc2ccccc2)CC(=O)N[C@@H](CCCCN)CN(C(=O)CCc2ccccc2)CC(=O)N[C@@H](CCCCN)CN(C(=O)CCc2ccccc2)CC(=O)N[C@@H](CCCCN)CN(C(=O)CCc2ccccc2)CC(=O)N[C@@H](Cc2ccccc2)CN(CC(N)=O)C(=O)CCC(=O)N[C@@H](Cc2ccccc2)C1	MIC, Fungi C. albicans	2

====

# Test system: methicillin-resistant S. aureus (ATCC 33592)
# conditions_used: Table 7
readout_name: MIC, Gram positive S. aureus (µg/mL)

structure_as_smiles	readout_name	sign	reading
CCCCCCCC/C=C\CCCCCCCC(=O)N[C@@H](C)CN(CC(=O)N[C@@H](C)CN(CC(=O)N[C@@H](CC(C)C)CN(CC(=O)N[C@@H](CC(C)C)CN(CC(=O)N[C@@H](CC(C)C)CN(CC(N)=O)C(=O)CCCN)C(=O)CCCN)C(=O)CCCN)C(C)=O)C(C)=O	MIC, Gram positive S. aureus	=	3
CCCCCCCCCCCCCCCC(=O)N[C@@H](C)CN(CC(=O)N[C@@H](C)CN(CC(=O)N[C@@H](CCCCN)CN(CC(=O)N[C@@H](CCCCN)CN(CC(=O)N[C@@H](CCCCN)CN(CC(N)=O)C(=O)CCCN)C(=O)CCCN)C(=O)CCCN)C(C)=O)C(C)=O	MIC, Gram positive S. aureus	=	10
CCCCCCCCCCCCCCCC(=O)N[C@@H](CCCCN)CN(CC(N)=O)C(=O)CCCN	MIC, Gram positive S. aureus	=	2.5
CCCCCCCCCCCC(=O)N[C@@H](CCCCN)CN(CC(N)=O)C(=O)CCCN	MIC, Gram positive S. aureus	>	50
CCCCCCCCCCCCCCCC(=O)N[C@@H](CCCCN)CN(CC(=O)N[C@@H](CCCCN)CN(CC(N)=O)C(=O)CCCN)C(=O)CCCN	MIC, Gram positive S. aureus	=	5
CC(=O)N(CC(=O)N[C@@H](C)CN(CC(=O)N[C@@H](CC(C)C)CN(CC(=O)N[C@@H](CC(C)C)CN(CC(=O)N[C@@H](CC(C)C)CN(CC(N)=O)C(=O)CCCN)C(=O)CCCN)C(=O)CCCN)C(C)=O)C[C@H](C)N	MIC, Gram positive S. aureus	>	100
